All figures here come from ChEMBL document CHEMBL4229489.

# Test system: Mus musculus
# assay-protocol: Hypoglycemic activity in albino CD-1 mouse assessed as reduction in blood glucose level at 10 mg/kg, po pretreated for 0.5 hrs followed by glucose challenge and measured after 30 to 90 mins by OGTT
# Assay type: functional, organism-based
Activity calls are given as the source filed them. No cut-off for these calls is given here.
Possible outcomes: class 1 = active, class 0 = inactive

{"molecule": "CC1(C)[C@H]2CC[C@]1(C)[C@@H](O)[C@H]2NCC(=O)N1CCC[C@H]1C#N (stereo in doubt)", "class-assignment": "class 1"}
{"molecule": "N#C[C@@H]1CCCN1C(=O)CN1C[C@H]2C[C@H](C1)c1c(Br)cc(Br)c(=O)n1C2", "class-assignment": "class 0"}
{"molecule": "CC12CCC([C@H](NCC(=O)N3CCC[C@H]3C#N)C1=O)C2(C)C (single isomer, unassigned)", "class-assignment": "class 1"}
{"molecule": "N#C[C@@H]1CCCN1C(=O)CN1C[C@H]2C[C@H](C1)c1c(Cl)cc(Cl)c(=O)n1C2", "class-assignment": "class 0"}
{"molecule": "N#C[C@@H]1CCCN1C(=O)CN1C[C@H]2C[C@H](C1)c1cccc(=O)n1C2", "class-assignment": "class 0"}
{"molecule": "N#C[C@@H]1CCCN1C(=O)CN1C[C@H]2C[C@H](C1)c1c(Cl)ccc(=O)n1C2", "class-assignment": "class 0"}
{"molecule": "CC1(C)[C@@H]2CC[C@@]1(C)[C@H](NCC(=O)N1CCC[C@H]1C#N)C2", "class-assignment": "class 1"}
{"molecule": "N#C[C@@H]1CCCN1C(=O)CNC12CC3CC(CC(O)(C3)C1)C2", "class-assignment": "class 1"}
{"molecule": "N#C[C@@H]1CCCN1C(=O)CN1C[C@H]2C[C@H](C1)c1ccc([N+](=O)[O-])c(=O)n1C2", "class-assignment": "class 0"}
{"molecule": "CC1(C)[C@H]2CC[C@]1(C)[C@@H](NCC(=O)N1CCC[C@H]1C#N)C2", "class-assignment": "class 1"}
